assayText: gradient 5% acetonitrile 3 min, to 50% in 2 min, to 85% in 15 min, held 3 min, 100 µL/min
conditionDescription: column: Zorbax Extend-C18 2.1 x 50 mm; eluents: water / acetonitrile, 0.1% formic acid
Listed molecules paired with reported RP-LC retention time

- mol: "CN1C(=O)c2ccccc2Oc2ccc(C(=O)N3CCCC3)cc21"
  measurementUnit: "s"
  RP-LC retention time: 719
- mol: "COc1ccc(-n2ncc(C(=O)N3CCN(C(=O)c4ccco4)CC3)c2-n2cccc2)cc1"
  measurementUnit: "s"
  RP-LC retention time: 717
- mol: "CCCNC(=O)c1cccc(-c2nc3cccnc3n2CCC)c1"
  measurementUnit: "s"
  RP-LC retention time: 705

###

Listed molecules paired with reported RP-LC retention time
assayText: gradient 5% acetonitrile 3 min, to 50% in 2 min, to 85% in 15 min, held 3 min, 100 µL/min
conditionDescription: column: Zorbax Extend-C18 2.1 x 50 mm; eluents: water / acetonitrile, 0.1% formic acid
endpoint: RP-LC retention time (s)

- molecule: "Cc1cc(N2CCCC2)n2nc(CN3CCN(c4ccccc4Cl)CC3)nc2n1"
  reportedResult: 662
- molecule: "CCCN(C(C)=O)c1nc(-c2ccc(C3CCCCC3)cc2)cs1"
  reportedResult: 748
- molecule: "Cc1cccc(NC(=O)C2CCCN2S(=O)(=O)c2ccc3c(c2)NC(=O)CO3)c1C (stereo not drawn)"
  reportedResult: 805
